- TARGET DESC: Bcl-xL-Beclin 1 complex (Homo sapiens, UniProt Q07817)
- Construct: made in house
- TEST: Concentration response FP reconfirmation of HTS hits
- Format: binding
- CONDITION LABEL: 40 μM; hits of first screen; read-out: Dose-response (% Inhibition) 40 μM
- Method: Then the plates were read by Envision (Perkin Elmer, Waltham, MA). […] The hits were selected from library stocks and reconfirmed in a concentration response FP assay (6 doses ranging from 5 μM to 160 μM or 8 doses ranging from 0.5 μM to 60 μM).
Structures can show the parent of a compound that is named as a salt.

[
  {
    "COMPOUND": "CCN(CC)CCCC(C)Nc1c2ccc(Cl)cc2nc2ccc(OC)cc12 (stereo not drawn) [Compound A21, QUINACRINE HYDROCHLORIDE]",
    "inhibition at 40 µM": "47.9%"
  },
  {
    "COMPOUND": "COc1cccc2c1C(=O)c1c(O)c3c(c(O)c1C2=O)C[C@@](O)(C(=O)CO)C[C@@H]3O[C@H]1C[C@H](N)[C@H](O)[C@H](C)O1 [Compound A25, DOXORUBICIN HYDROCHLORIDE]",
    "inhibition at 40 µM": "41.7%"
  },
  {
    "COMPOUND": "CCCCCc1c2c(cc(O)c1C(=O)O)OC(=O)c1c(cc(OC)cc1C(=O)CCCC)O2",
    "inhibition at 40 µM": "3.2%"
  }
]

* * *

- TARGET DESC: Bcl-xL-Beclin 1 20-mer complex (Homo sapiens)
- Sequence (Q07817 whole entry, one chain of several): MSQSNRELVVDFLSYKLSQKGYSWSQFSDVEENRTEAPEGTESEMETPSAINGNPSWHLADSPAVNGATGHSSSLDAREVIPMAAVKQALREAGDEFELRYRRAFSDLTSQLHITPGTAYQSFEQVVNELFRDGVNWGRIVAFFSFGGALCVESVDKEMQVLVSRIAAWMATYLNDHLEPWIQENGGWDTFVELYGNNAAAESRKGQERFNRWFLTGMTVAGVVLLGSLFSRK
- TEST: FP competitive binding assay (disruption of Bcl-xL-20-mer complex)
- CONDITION LABEL: 2.5 μM Bcl-xL protein, 400 nM fluorescein-labeled 20-mer
Counter-ions that a name gives are not always drawn.
Below, each entry is listed alongside its reported Ki.
PROPERTY LABEL: Ki (µM)

[
  {
    "MOLECULE": "CCOc1ccc2nc3cc(N)ccc3c(N)c2c1 [Compound A15, ETHACRIDINE LACTATE]",
    "TARGET DESC": "Bcl-xL-Beclin 1 20-mer complex (Homo sapiens)",
    "PROPERTY LABEL": "Ki",
    "UNITS": "µM",
    "REPORTED VALUE": 28
  },
  {
    "MOLECULE": "CCN(CC)CCCC(C)Nc1c2ccc(Cl)cc2nc2ccc(OC)cc12 (stereo not drawn) [Compound A21, QUINACRINE HYDROCHLORIDE]",
    "TARGET DESC": "Bcl-xL-Beclin 1 20-mer complex (Homo sapiens)",
    "PROPERTY LABEL": "Ki",
    "UNITS": "µM",
    "REPORTED VALUE": 13.2
  },
  {
    "MOLECULE": "Nc1ccc2cc3ccc(N)cc3nc2c1 [Compound A13, PROFLAVINE HEMISULFATE]",
    "TARGET DESC": "Bcl-xL-Beclin 1 20-mer complex (Homo sapiens)",
    "PROPERTY LABEL": "Ki",
    "UNITS": "µM",
    "REPORTED VALUE": 0.84
  }
]

* * *

- TARGET DESC: Bcl-xL-Beclin 1 complex (Homo sapiens, UniProt Q07817)
- Construct: made in house
- TEST: Concentration response FP reconfirmation of HTS hits
- Format: binding
- CONDITION LABEL: read-out: Dose-response (% Inhibition) 5 μM
Structures can show the parent of a compound that is named as a salt.
Below, each entry is listed alongside its reported inhibition at 5 µM.
PROPERTY LABEL: inhibition at 5 µM (%)

[
  {
    "COMPOUND": "Cc1cc2c(C(C)C)c(O)c(O)c(C=O)c2c(O)c1-c1c(C)cc2c(C(C)C)c(O)c(O)c(C=O)c2c1O",
    "TARGET DESC": "Bcl-xL-Beclin 1 complex (Homo sapiens, UniProt Q07817)",
    "REPORTED VALUE": 2.7
  },
  {
    "COMPOUND": "COc1cccc2c1C(=O)c1c(O)c3c(c(O)c1C2=O)C[C@@](O)(C(C)=O)C[C@@H]3O[C@H]1C[C@H](N)[C@H](O)[C@H](C)O1",
    "TARGET DESC": "Bcl-xL-Beclin 1 complex (Homo sapiens, UniProt Q07817)",
    "REPORTED VALUE": 22.8
  },
  {
    "COMPOUND": "CC[n+]1c(-c2ccccc2)c2cc(N)ccc2c2ccc(N)cc21 [Compound A12, HOMIDIUM BROMIDE]",
    "TARGET DESC": "Bcl-xL-Beclin 1 complex (Homo sapiens, UniProt Q07817)",
    "REPORTED VALUE": 3.5
  },
  {
    "COMPOUND": "CN1C[C@H](C(=O)N[C@]2(C)O[C@@]3(O)[C@@H]4CCCN4C(=O)[C@H](Cc4ccccc4)N3C2=O)C=C2c3cccc4[nH]cc(c34)C[C@H]21 [Compound A18, ERGOTAMINE TARTRATE]",
    "TARGET DESC": "Bcl-xL-Beclin 1 complex (Homo sapiens, UniProt Q07817)",
    "REPORTED VALUE": -0.2
  },
  {
    "COMPOUND": "O=C(Nc1ccccc1)c1ccccc1O [Compound A39, SALICYLANILIDE]",
    "TARGET DESC": "Bcl-xL-Beclin 1 complex (Homo sapiens, UniProt Q07817)",
    "REPORTED VALUE": 103
  },
  {
    "COMPOUND": "C[n+]1cc2c3c(ccc2c2ccc4cc5c(cc4c21)OCO5)OCO3 [Compound A05, SANGUINARINE SULFATE]",
    "TARGET DESC": "Bcl-xL-Beclin 1 complex (Homo sapiens, UniProt Q07817)",
    "REPORTED VALUE": -1.4
  },
  {
    "COMPOUND": "CCCCCCCCCc1ccc(OCCOCCOCCOCCOCCOCCOCCOCCOCCO)cc1",
    "TARGET DESC": "Bcl-xL-Beclin 1 complex (Homo sapiens, UniProt Q07817)",
    "REPORTED VALUE": -0.3
  },
  {
    "COMPOUND": "O=C1C(Cl)=C(Cl)C(=O)C(Cl)=C1Cl",
    "TARGET DESC": "Bcl-xL-Beclin 1 complex (Homo sapiens, UniProt Q07817)",
    "REPORTED VALUE": -3
  }
]

This collection of values is drawn from paper PMC5584254.
